Source: patent US20240391931A1

target: EGFR (Homo sapiens); assay: EGFR signaling (pEGFR Tyr1068/total EGFR MSD) in A431 cells; format: cell-based; parameters: endogenous in cells; host or cells: A431, N87; details: A431 pEGFR EC50, A431 cells
Structures can show the parent of a compound that is named as a salt.
endpoint: EC50

>>> recorded_measurement("Cc1ccc(Oc2ccc(Nc3ncnc4sc5c(c34)CCN(C(=O)/C=C/CN3CC4CCC(C4)C3)C5)cc2C)cn1 [Compound 16, benzenesulfonate salt]")
"100 to 1000 nM"

---

target: EGFR (Homo sapiens, UniProt P00533); assay: EGFR signaling (pEGFR Tyr1068/total EGFR MSD) in A431 cells; type: cell-based; design: endogenous in cells; host or cells: A431, N87; conditions: ratio A431 pEGFR EC50 to BT474 pHER2 EC50
Sequence (P00533 25-1210): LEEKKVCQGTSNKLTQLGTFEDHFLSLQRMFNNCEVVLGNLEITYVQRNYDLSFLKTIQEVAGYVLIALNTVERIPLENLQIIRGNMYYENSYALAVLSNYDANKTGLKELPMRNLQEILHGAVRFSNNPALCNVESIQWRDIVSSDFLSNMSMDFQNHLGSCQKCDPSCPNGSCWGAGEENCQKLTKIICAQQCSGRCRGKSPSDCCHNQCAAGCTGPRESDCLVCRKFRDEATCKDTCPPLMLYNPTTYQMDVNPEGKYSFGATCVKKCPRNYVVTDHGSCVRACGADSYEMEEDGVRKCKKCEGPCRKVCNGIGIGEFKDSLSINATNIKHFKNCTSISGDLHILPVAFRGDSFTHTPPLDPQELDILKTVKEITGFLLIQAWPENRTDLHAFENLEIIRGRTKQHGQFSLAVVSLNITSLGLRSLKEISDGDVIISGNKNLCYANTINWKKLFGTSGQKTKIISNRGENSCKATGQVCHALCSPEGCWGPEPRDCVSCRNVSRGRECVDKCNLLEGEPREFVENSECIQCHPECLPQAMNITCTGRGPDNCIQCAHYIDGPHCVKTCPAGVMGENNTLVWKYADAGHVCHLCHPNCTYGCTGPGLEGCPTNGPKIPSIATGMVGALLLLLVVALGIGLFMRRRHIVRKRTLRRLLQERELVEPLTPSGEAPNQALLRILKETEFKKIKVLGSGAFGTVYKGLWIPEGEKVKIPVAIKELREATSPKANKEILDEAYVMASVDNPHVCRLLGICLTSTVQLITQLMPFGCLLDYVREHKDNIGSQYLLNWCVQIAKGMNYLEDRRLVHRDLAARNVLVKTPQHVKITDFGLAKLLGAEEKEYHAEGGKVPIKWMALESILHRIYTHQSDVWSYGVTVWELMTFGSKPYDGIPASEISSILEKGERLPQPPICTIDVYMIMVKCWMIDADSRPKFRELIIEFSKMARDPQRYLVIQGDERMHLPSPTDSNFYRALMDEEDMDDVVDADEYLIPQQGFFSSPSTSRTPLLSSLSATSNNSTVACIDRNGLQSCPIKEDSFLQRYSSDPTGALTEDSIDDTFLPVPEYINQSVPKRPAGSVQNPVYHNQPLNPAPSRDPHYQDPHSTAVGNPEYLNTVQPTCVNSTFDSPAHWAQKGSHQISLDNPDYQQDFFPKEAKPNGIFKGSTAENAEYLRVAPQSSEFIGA
endpoint: Selectivity A431 EC50/BT474 EC50

>>> recorded_measurement("Cc1ccc(Oc2ccc(Nc3ncnc4sc5c(c34)CCN(C(=O)/C=C/CNC3CCOC3)C5)cc2C)cn1 (stereo not shown)")
"C (C: ≥ 10 and < 20)"
>>> recorded_measurement("Cc1ccc(Oc2ccc(Nc3ncnc4sc5c(c34)CCN(C(=O)/C=C/CN3CCC(CO)(CO)CC3)C5)cc2C)cn1")
"B (B: ≥ 20 and < 100)"
>>> recorded_measurement("Cc1ccc(Oc2ccc(Nc3ncnc4sc5c(c34)C(C)CN(C(=O)C=CCN(C)C(C)(C)C)C5)cc2C)cn1 (single isomer, unassigned) [Compound 179]")
"B (B: ≥ 20 and < 100)"
>>> recorded_measurement("Cc1ccc(Oc2ccc(Nc3ncnc4sc5c(c34)CCN(C(=O)/C=C/CN3CCOC(C)(C)C3)C5)cc2C)cn1")
"C (C: ≥ 10 and < 20)"
>>> recorded_measurement("Cc1ccc(Oc2ccc(Nc3ncnc4sc5c(c34)CCN(C(=O)/C=C/CNCc3cc(C)n[nH]3)C5)cc2C)cn1")
"B (B: ≥ 20 and < 100)"

---

biological target: EGFR (Homo sapiens); assay: EGFR signaling (pEGFR Tyr1068/total EGFR MSD) in A431 cells; format: cell-based; design: endogenous in cells; host or cells: A431, N87; details: ratio A431 pEGFR EC50 to BT474 pHER2 EC50
endpoint: Selectivity A431 EC50/BT474 EC50

>>> recorded_measurement("CN(C/C=C/C(=O)N1CCc2c(sc3ncnc(Nc4ccc(Oc5ccc6ncnn6c5)c(Cl)c4)c23)C1)C(C)(C)C")
"C (C: ≥ 10 and < 20)"
>>> recorded_measurement("Cc1ccc(Oc2ccc(Nc3ncnc4sc5c(c34)CCCN(C(=O)/C=C/CN(C)C)C5)cc2C)cn1")
"C (C: ≥ 10 and < 20)"
>>> recorded_measurement("Cc1cc(Nc2ncnc3sc4c(c23)CCN(C(=O)/C=C/CN(C)C)C4)ccc1Oc1ccn2ncnc2c1")
"B (B: ≥ 20 and < 100)"
>>> recorded_measurement("Cc1ccc(Oc2ccc(Nc3ncnc4sc5c(c34)CCN(C(=O)/C=C/CNCC3CN(C)CCO3)C5)cc2C)cn1 (stereo not shown)")
"B (B: ≥ 20 and < 100)"
>>> recorded_measurement("C=CC(=O)N1[C@H](C)Cc2c(sc3ncnc(Nc4ccc(Oc5ccc(C)nc5)c(C)c4)c23)[C@H]1C (racemic)")
"B (B: ≥ 20 and < 100)"
>>> recorded_measurement("C=CC(=O)N1CCc2[nH]c3ncnc(Nc4ccc(Oc5ccc(C)nc5)c(C)c4)c3c2C1")
"C (C: ≥ 10 and < 20)"
>>> recorded_measurement("Cc1cc(Nc2ncnc3sc4c(c23)CCN(C(=O)/C=C/CN2CC3CC2CO3)C4)ccc1Oc1ccc2ncnn2c1 (stereo not shown)")
"B (B: ≥ 20 and < 100)"
>>> recorded_measurement("Cc1ccc(Oc2ccc(Nc3ncnc4sc5c(c34)CCN(C(=O)/C=C/CN(C)C)CC5)cc2Cl)cn1")
"B (B: ≥ 20 and < 100)"
>>> recorded_measurement("Cc1ccc(Oc2ccc(Nc3ncnc4sc5c(c34)CCN(C(=O)/C=C/CN[C@H]3CCC[C@H](O)C3)C5)cc2C)cn1")
"D (D: ≥ 5 and < 10)"
>>> recorded_measurement("C=CC(=O)N1Cc2sc3ncnc(Nc4ccc(Oc5ccc(C)nc5)c(C)c4)c3c2C(C)C1 (single isomer, unassigned) [Compound 146]")
"C (C: ≥ 10 and < 20)"
>>> recorded_measurement("Cc1ccc(Oc2ccc(Nc3ncnc4sc5c(c34)CCN(C(=O)/C=C/CNC3CCC3)C5)cc2C)cn1")
"D (D: ≥ 5 and < 10)"
>>> recorded_measurement("Cc1cc(Nc2ncnc3sc4c(c23)CCN(C(=O)/C=C/CN(C)C)C4)ccc1Oc1ccc2scnc2c1")
"C (C: ≥ 10 and < 20)"
>>> recorded_measurement("COc1ccc(Oc2ccc(Nc3ncnc4sc5c(c34)CCN(C(=O)/C=C/CN(C)C)C5)cc2C)cn1")
"D (D: ≥ 5 and < 10)"
>>> recorded_measurement("CCN1CCN(C/C=C/C(=O)N2CCc3c(sc4ncnc(Nc5ccc(Oc6ccc(C)nc6)c(C)c5)c34)C2)CC1")
"B (B: ≥ 20 and < 100)"
>>> recorded_measurement("Cc1ccc(Oc2ccc(Nc3ncnc4sc5c(c34)CC(C)N(C(=O)C=CCN(C)C)C5C)cc2C)cn1 (single isomer, unassigned) [Compound 162]")
"B (B: ≥ 20 and < 100)"
>>> recorded_measurement("Cc1ccc(Oc2ccc(Nc3ncnc4sc5c(c34)CN(C(=O)/C=C/CN(C)C)C5)cc2Cl)cn1")
"B (B: ≥ 20 and < 100)"
>>> recorded_measurement("CNC(=O)CNC/C=C/C(=O)N1CCc2c(sc3ncnc(Nc4ccc(Oc5ccc(C)nc5)c(C)c4)c23)C1")
"C (C: ≥ 10 and < 20)"
>>> recorded_measurement("Cc1ccc(Oc2ccc(Nc3ncnc4sc5c(c34)CCN(C(=O)/C=C/CN3CCCC(F)(CO)C3)C5)cc2C)cn1 (stereo not shown)")
"B (B: ≥ 20 and < 100)"
>>> recorded_measurement("CCN(CC)C/C=C/C(=O)N1CCc2c(sc3ncnc(Nc4ccc(Oc5ccc(C)nc5)c(C)c4)c23)C1")
"C (C: ≥ 10 and < 20)"
>>> recorded_measurement("Cc1ccc(Oc2ccc(Nc3ncnc4sc5c(c34)CCN(C(=O)/C=C/CN3CCC4(CCOC4)C3)C5)cc2C)cn1 (stereo not shown)")
"D (D: ≥ 5 and < 10)"
>>> recorded_measurement("Cc1ccc(Oc2ccc(Nc3ncnc4sc5c(c34)CCN(C(=O)/C=C/CN(C)C)C5)cc2C)cn1")
"C (C: ≥ 10 and < 20)"
>>> recorded_measurement("Cc1ccc(Oc2ccc(Nc3ncnc4sc5c(c34)CCN(C(=O)/C=C/CN(C)C(C)(C)C)C5)cc2C)cn1")
"B (B: ≥ 20 and < 100)"
>>> recorded_measurement("Cc1ccc(Oc2ccc(Nc3ncnc4sc5c(c34)CCN(C(=O)/C=C/CN3CCCOCC3)C5)cc2C)cn1")
"B (B: ≥ 20 and < 100)"
>>> recorded_measurement("Cc1ccc(Oc2ccc(Nc3ncnc4sc5c(c34)CCN(C(=O)/C=C/CN3CCCC34CCC4)C5)cc2C)cn1")
"C (C: ≥ 10 and < 20)"
>>> recorded_measurement("Cc1ccc(Oc2ccc(Nc3ncnc4sc5c(c34)CCN(C(=O)/C=C/CN3CC[C@H](CO)C3)C5)cc2C)cn1")
"B (B: ≥ 20 and < 100)"
>>> recorded_measurement("Cc1cn2ccc(Oc3ccc(Nc4ncnc5sc6c(c45)CCN(C(=O)/C=C/CN(C)C)C6)cc3C)cc2n1")
"B (B: ≥ 20 and < 100)"
>>> recorded_measurement("Cc1ccc(Oc2ccc(Nc3ncnc4sc5c(c34)CCN(C(=O)/C=C/CN(C)C)CC5)cc2C)cn1")
"B (B: ≥ 20 and < 100)"
>>> recorded_measurement("COc1ccc(Oc2ccc(Nc3ncnc4sc5c(c34)C(C)CN(C(=O)C=CCN(C)C)C5)cc2C)cn1 (single isomer, unassigned) [Compound 159]")
"C (C: ≥ 10 and < 20)"

---

target: EGFR (Homo sapiens); assay: EGFR signaling (pEGFR Tyr1068/total EGFR MSD) in A431 cells; assay type: cell-based; set-up: endogenous in cells; host or cells: A431, N87; details: A431 cells; read-out: A431 pEGFR EC50
endpoint: EC50

>>> recorded_measurement("O=C(/C=C/CN1CCOCC1)N1CCc2c(sc3ncnc(Nc4ccc(Oc5ccc6ncnn6c5)c(Cl)c4)c23)C1")
"100 to 1000 nM"
>>> recorded_measurement("Cc1ccc(Oc2ccc(Nc3ncnc4sc5c(c34)C(C)CN(C(=O)C=CCN(C)C)C5)cc2C)cn1 (single isomer, unassigned) [Compound 106]")
"100 to 1000 nM"
>>> recorded_measurement("Cc1cc(Nc2ncnc3sc4c(c23)CCN(C(=O)/C=C/CN(C)C)CC4)ccc1Oc1ccn2ccnc2c1")
"1000 to 10000 nM"
>>> recorded_measurement("Cc1cc(Nc2ncnc3sc4c(c23)CCN(C(=O)/C=C/CN2CC3CC2CO3)C4)ccc1Oc1ccc2ncnn2c1 (centres unmarked)")
"1000 to 10000 nM"
>>> recorded_measurement("Cc1ccc(Oc2ccc(Nc3ncnc4sc5c(c34)CCN(C(=O)/C=C/CN(C)C)C5)cc2C)cn1")
"< 100 nM"
>>> recorded_measurement("Cc1ccc(Oc2ccc(Nc3ncnc4sc5c(c34)CCN(C(=O)/C=C/CN3CCCC34CCC4)C5)cc2C)cn1")
"100 to 1000 nM"
>>> recorded_measurement("Cc1ccc(Oc2ccc(Nc3ncnc4sc5c(c34)CCN(C(=O)/C=C/CN3CCO[C@@H](CO)C3)C5)cc2C)cn1")
"100 to 1000 nM"
>>> recorded_measurement("C=CC(=O)N1Cc2sc3ncnc(Nc4ccc(Oc5ccc(C)nc5)c(C)c4)c3c2C(C)C1 (single isomer, unassigned) [Compound 145]")
"100 to 1000 nM"
>>> recorded_measurement("Cc1ccc(Oc2ccc(Nc3ncnc4sc5c(c34)CCN(C(=O)/C=C/CN3CCCCC3(C)CO)C5)cc2C)cn1 (centres unmarked)")
"100 to 1000 nM"
>>> recorded_measurement("COc1ccc(Oc2ccc(Nc3ncnc4sc5c(c34)C(C)CN(C(=O)C=CCN(C)C)C5)cc2C)cn1 (single isomer, unassigned) [Compound 159]")
"100 to 1000 nM"
>>> recorded_measurement("CON(C)C/C=C/C(=O)N1CCc2c(sc3ncnc(Nc4ccc(Oc5ccc(C)nc5)c(C)c4)c23)C1")
"1000 to 10000 nM"
>>> recorded_measurement("Cc1ccc(Oc2ccc(Nc3ncnc4sc5c(c34)C[C@@H](C)N(C(=O)/C=C/CN(C)C)[C@@H]5C)cc2C)cn1 (racemic)")
"1000 to 10000 nM"
>>> recorded_measurement("Cc1cc(Nc2ncnc3sc4c(c23)CCN(C(=O)/C=C/CN(C)C)C4)ccc1Oc1ccc2scnc2c1")
"< 100 nM"
>>> recorded_measurement("O=C(/C=C/CN1CC2C(CO)C2C1)N1CCc2c(sc3ncnc(Nc4ccc(Oc5ccc6ncnn6c5)c(Cl)c4)c23)C1 (centres unmarked)")
"< 100 nM"
